Can you tell me IC50 for the items I'm about to list?
# Test system: adult rat dermal fibroblasts (RDF)
# ASSAY_METHOD_TEXT: Resazurin viability assay, senescent vs proliferating rat dermal fibroblasts
# Format: cell-based
# MEASUREMENT_CONTEXT: Rattus norvegicus, Fibroblast; proliferating RDF; 72 hour exposure; resazurin; read-out: IC50 RDFprolif

>>> print(df.to_string())
                                   molecule  experimental_result
0  O=C(Nc1ccccc1)c1cc2c(nc1NCCOc1ccccc1)CC(c1ccccc1)C/C2=N\O (stereo not shown)              > 20 µM
1  COc1ccc(C2C/C(=N\O)c3c(SCc4ccccc4)sc(C(=O)NCc4ccccc4)c3C2)cc1 (stereo not shown)              > 20 µM
2  O/N=C1\CC(c2ccccc2)Cc2nc(NCc3ccccc3)sc21 (stereo not shown)              > 20 µM
3  Cc1ccc(CNc2ncc3c(n2)CC(c2ccccc2)C/C3=N\O)cc1 (stereo not shown)              > 20 µM
4  CCOC(=O)c1sc(Sc2ccccc2)c2c1CC(c1ccc(OC)cc1)C/C2=N\O (stereo not shown)              > 10 µM

Answer for every listed entry: what is its IC50? The entries follow.
1. COc1ccc(C2C/C(=N\O)c3sc(NC(=O)COc4ccc(C)cc4)nc3C2)cc1 (stereo not shown)
2. O/N=C1\CC(c2ccccc2)Cc2nc(NCCOc3ccccc3)ncc21 (stereo not shown)

**A:**
["< 10 µM", "> 20 µM"]
